Recorded TGI, one value per entry.
- System: HCC-2998 colon
- testDescription: NCI tumour cell line growth inhibition, 48 h

{"columns": ["molecule", "TGI"],
 "data": [
  ["CCCCC[C@H]1C/C=C2/C(=O)C(Cl)=C[C@@H]2C/C=C\\CCCC(=O)O1", "0.855 µM"],
  ["Cc1nn(-c2ccccc2)c2nc(C)n(-c3ccc(Br)cc3)c(=O)c12", "> 100 µM"],
  ["C[Si](C)(C)/C=C/CN1C(=O)CCC1=O", "> 100 µM"],
  ["CC(C)(C)NC(=S)N/N=C/c1ccccn1", "> 100 µM"],
  ["COc1ccc2c(c1)C(=O)c1c-2n(CCCCl)c(=O)c2cc(N)ccc12", "> 100 µM"]
]}

TGI reported for this molecule C1=Cc2cccc3occ(c23)C=C1 : > 100 µM

TGI reported for this molecule COC(=O)[C@H](CCCCNC(=O)OCc1ccccc1)NC(=O)[C@@H](NC(=O)Nc1cc(C(F)(F)F)cc(C(F)(F)F)c1)C(C)C : > 10 µM

TGI reported for this molecule CC(C)=CCOc1ccc(-c2coc3cc4c(c(O)c3c2=O)C=CC(C)(C)O4)cc1 : > 100 µM

TGI reported for this molecule C=C1C(O)C2CC(C)(C)C(=O)C2=C(CC(C)C)C12CC2 (stereo unspecified) : > 100 µM

TGI reported for this molecule CCOC(=O)c1nc2cc(F)cc(F)c2[nH]c1=O : > 100 µM

TGI reported for this molecule CNC(=O)NCCN1N=C(C)/C(=C\c2ccccc2)CC1=O : > 100 µM

====

- System: HL-60(TB) leukemia
- testDescription: NCI tumour cell line growth inhibition, 48 h; in the data active = GI50 below about 0.43 µM; inactive = the rest
Choose the fitting class; nothing outside active, inactive is accepted.

Recorded results for 2 compounds are shown here.
{"columns": ["compound", "category"],
 "data": [
  ["OCC1OC(n2cnc3c(NCc4ccco4)ncnc32)C(O)C1O (stereo not given)", "inactive"],
  ["CC(=O)/C=C/c1ccc(N(CCO)Cc2ccc(C(C)(C)C)cc2)cc1", "inactive"]
]}

Test call for this compound, please: CC[Si](CC)(CC)OC1[C@@H](O[Si](CC)(CC)CC)[C@@H](CNC(=O)NC)O[C@H]1n1cnc2c(NC(=O)Nc3ccccc3)ncnc21 (stereo not given in full)
inactive

Test call for this compound, please: Cc1ccc(/C(=C/C=C(C#N)C#N)Sc2nc3ccccc3s2)cc1
inactive

Test call for this compound, please: CCOC(=O)c1ccc(NC(=O)c2cccc(NC3=C(Cl)C(=O)N(Cc4ccccc4)C3=O)c2)cc1
inactive

Test call for this compound, please: COc1ccc2c(c1)C(=O)c1c-2n(CCCCl)c(=O)c2cc(N)ccc12
inactive

Test call for this compound, please: COc1ccc2[nH]c3c(O)c(-c4c(C)cc5c([nH]c6ccc(OC)cc65)c4O)c(C)cc3c2c1
active

Test call for this compound, please: CC(=O)c1ccc(Oc2c3ccccc3nc3occc23)cc1
inactive

Test call for this compound, please: C=CCN1C(=O)[C@]2(SC1=S)[C@H](c1cccc(Cl)c1)CN(C)[C@]21C(=O)NC2C=CC(Cl)=C[C@H]21 (stereo not given in full)
inactive

Test call for this compound, please: CCN(CC)CCCNc1cc(OC)c(OC)c2cccnc12
inactive

====

Recorded TGI, one value per entry.
- Tested on: CAKI-1 renal
- testDescription: NCI tumour cell line growth inhibition, 48 h
# number only, unit µM dropped from output

TGI reported for this compound COc1cc(NCCC2CCCCN2)c2ncccc2c1OC (stereo not drawn) : 30.2

TGI reported for this compound CCC(C(=O)[C@@H](C)[C@@H](O)[C@H](C)[C@@H]1O[C@@H]([C@@H](CC)C(=O)ONC(=O)c2ccccc2)CC[C@@H]1C)[C@H]1O[C@]2(C=CC(=O)[C@]3(CC[C@@](C)([C@H]4CC[C@](O)(CC)[C@H](C)O4)O3)O2)[C@H](C)C[C@@H]1C (stereo partly drawn) : 2.71

TGI reported for this compound NC(=O)NC(=O)c1cccc(NC(=O)CCl)c1 : 6

TGI reported for this compound O=C(CCl)Nc1ccc(Cc2ccc(NC(=O)CCl)cc2)cc1 : 3.38

====

- Test system: MDA-N
- testDescription: NCI tumour cell line growth inhibition, 48 h
experimentalEndpoint: TGI

Reference set (2 entries):
{"columns": ["compound", "testValue"],
 "data": [
  ["N#Cc1c(N)c2c(c(-c3ccccc3)c1-c1ccccc1)C(=O)N(O)C2=O", "> 100 µM"],
  ["COC(=O)c1cc2c(cc1C(=O)OC)[C@@]1(C)CCCC(C)(C)C1CC2 (some centres not stated)", "78.8 µM"]
]}

Lab entry: MDA-N assay, compound CC12CCC(=O)[C@@]1(C)CCCC2O (some centres not stated) , TGI = > 100 µM

Lab entry: MDA-N assay, compound O=Cc1ccc(-c2ccc(S(=O)(=O)O)cc2)o1 , TGI = > 100 µM

Lab entry: MDA-N assay, compound O=c1[nH]c(=O)n(C2OC(CO)C(O)C2O)cc1F (configuration not stated) , TGI = > 70.5 µM

====

- Test system: SF-295 CNS
- testDescription: NCI tumour cell line growth inhibition, 48 h; in the data active = GI50 below about 0.43 µM; inactive = the rest
Choose the fitting class; nothing outside active, inactive is accepted.

{"columns": ["compound", "category"],
 "data": [
  ["CCS(=O)(=O)N1CCN(c2ccc(Nc3ncc(C(N)=O)c(NC4CC4)n3)cc2)CC1", "inactive"]
]}

Test call for this compound, please: Cc1cn2c(/C=C3\C(=O)N(C)c4ccc(Cl)cc43)c(C)nc2s1
inactive

Test call for this compound, please: CCOC(=O)c1ccc(NC(=O)c2cccc(NC3=C(Cl)C(=O)N(Cc4ccccc4)C3=O)c2)cc1
inactive

====

- Tested on: OVCAR-3 ovarian
- testDescription: NCI tumour cell line growth inhibition, 48 h; in the data active = GI50 below about 0.43 µM; inactive = the rest
Choose the fitting class; nothing outside active, inactive is accepted.

Recorded results for 2 compounds are shown here.
{"columns": ["compound", "category"],
 "data": [
  ["Cn1cc(-c2nc(-c3cn(C)c4ncccc34)cs2)c2ccccc21", "active"],
  ["C[C@@H](Oc1cc(-c2cnn(C3CCNCC3)c2)cnc1N)c1c(Cl)cc(F)cc1Cl", "inactive"]
]}

Test call for this compound, please: CC1(C)CN(CCNc2nccc(-c3c(-c4cccc(O)c4)nc4sccn34)n2)S(=O)(=O)N1
inactive

Test call for this compound, please: CC1(C)CC[C@]2(CO)CC[C@]3(C)C(=CC[C@@H]4[C@@]5(C)CCNCC(C)(C)[C@@H]5CC[C@]43C)[C@@H]2C1
inactive

====

- Tested on: HT29 colon
- testDescription: NCI tumour cell line growth inhibition, 48 h
Recorded TGI, one value per entry.

{"columns": ["compound", "TGI"],
 "data": [
  ["C/C(=N/N)c1sc(-c2nc(C)c(/C(C)=N\\N)s2)nc1C", "> 100 µM"],
  ["C=CCC1C(=O)CC2(C)C(CC=C)C(=O)CC12C (centres undefined)", "> 100 µM"],
  ["O=C(O)CCC(NC(=O)c1ccc(CNc2nc3cc(C(F)(F)F)ccc3nc2C(=O)O)cc1)C(=O)O (centres undefined)", "> 100 µM"],
  ["COC(=O)/C(C#N)=C/c1cc(C(C)(C)C)c(O)c(C(C)(C)C)c1", "12.1 µM"],
  ["CC1(C)CN(CCNc2nccc(-c3c(-c4cccc(O)c4)nc4sccn34)n2)S(=O)(=O)N1", "> 33.2 µM"]
]}

TGI reported for this compound O=c1[nH]c(=O)n(C2OC(CO)C(O)C2O)cc1F (centres undefined) : > 100 µM

TGI reported for this compound Cc1ccc(C2C3Cc4ccccc4C3=NN2c2ccc(S(=O)(=O)NC(=O)Nc3ccccc3)cc2)cc1 (centres undefined) : > 100 µM

TGI reported for this compound C=C1C(=O)O[C@H]2[C@H]1CC/C(COC(=O)N[C@H](Cc1c[nH]c3ccccc13)C(=O)OC)=C\CC[C@@]1(C)O[C@@H]21 : 7.92 µM

TGI reported for this compound O=C(Nc1cc2cc([N+](=O)[O-])ccc2oc1=O)c1cccs1 : > 100 µM

====

- System: MALME-3M melanoma
- testDescription: NCI tumour cell line growth inhibition, 48 h
Recorded TGI, one value per entry.

Reference set (5 entries):
{"columns": ["compound", "testValue"],
 "data": [
  ["CC(=O)N1N=C(c2ccc3ccccc3c2O)CC1c1ccc(N(C)C)cc1 (stereo unspecified)", "> 100 µM"],
  ["N#CC(C#N)=Cn1c(=S)[nH]c2ccc([N+](=O)[O-])cc21", "> 100 µM"],
  ["CCOC(=O)CCc1ccc(NC(=O)/C=C/c2ccc([N+](=O)[O-])o2)cc1", "3.14 µM"],
  ["Nc1ncnc2c1ncn2CCCCC(=O)O", "> 100 µM"],
  ["N[C@H]1CCN(c2c(F)cc3c(=O)c(C(=O)O)cn4c3c2Oc2c-4ccc3c2ccc2ccccc23)C1", "> 100 µM"]
]}

TGI reported for this compound NC(Cc1c[nH]c2cccc(F)c12)C(=O)O (stereo unspecified) : > 4500 µM

TGI reported for this compound COC1C(=O)N(SC)C1c1ccccc1Cl (stereo unspecified) : 44.4 µM

TGI reported for this compound S=C1Cc2c(-c3ccccc3)cc(-c3ccc(Cl)cc3)nc2-c2ccccc2N1 : 13 µM
